Assay: Volume of distribution at steady state in rat at 0.1 mg/kg, iv administered as cassette dose by LC/MS/MS analysis
Format: ADME, organism-based
Settings: in vivo
Measure: Vdss (L/kg)
Numbers only, in L/kg.

## Task Supply reported Vdss belonging to this compound: `CC(C)(F)c1noc(N2CCC(N(c3cc(OC4CCN(S(C)(=O)=O)CC4)ncn3)C(F)(F)F)CC2)n1`
## Result 1.27

---

Consider the following compounds; for each one, report its microsomal CLint.
Assay: Intrinsic clearance in human liver microsomes
Assay type: ADME, Microsome
Conditions: read-out: CLH
Numbers only, in µL/min/mg.

- Structure Smiles: "CC(C)c1noc(N2CCC(Oc3cc(N4CCc5cc(N6CCC[C@H](O)C6=O)ccc54)ncn3)CC2)n1"
  Unit Annotation: "µL/min/mg"
  Measured Number: 10

Then this compound:
## Task Give microsomal CLint for the following compound: `CC(C)(F)c1noc(N2CCC(N(c3cc(OC4CCN(S(C)(=O)=O)CC4)ncn3)C(F)(F)F)CC2)n1`
## Result 27

---

Assay: AUC in […] at 1 mg/kg, po administered as cassette dose by LC/MS/MS analysis
Format: ADME, organism-based, Rattus norvegicus
Parameters: dose 1 mg/kg
Conditions: in vivo
Measure: AUC

## Task Supply measured AUC of `CC(C)(F)c1noc(N2CCC(N(c3cc(OC4CCN(S(C)(=O)=O)CC4)ncn3)C(F)(F)F)CC2)n1` in your reply.
## Result 1540 ng·h/mL

---

Target: Glucose-dependent insulinotropic receptor (Rattus norvegicus, UniProt Q7TQN8)
Sequence (Q7TQN8 whole entry): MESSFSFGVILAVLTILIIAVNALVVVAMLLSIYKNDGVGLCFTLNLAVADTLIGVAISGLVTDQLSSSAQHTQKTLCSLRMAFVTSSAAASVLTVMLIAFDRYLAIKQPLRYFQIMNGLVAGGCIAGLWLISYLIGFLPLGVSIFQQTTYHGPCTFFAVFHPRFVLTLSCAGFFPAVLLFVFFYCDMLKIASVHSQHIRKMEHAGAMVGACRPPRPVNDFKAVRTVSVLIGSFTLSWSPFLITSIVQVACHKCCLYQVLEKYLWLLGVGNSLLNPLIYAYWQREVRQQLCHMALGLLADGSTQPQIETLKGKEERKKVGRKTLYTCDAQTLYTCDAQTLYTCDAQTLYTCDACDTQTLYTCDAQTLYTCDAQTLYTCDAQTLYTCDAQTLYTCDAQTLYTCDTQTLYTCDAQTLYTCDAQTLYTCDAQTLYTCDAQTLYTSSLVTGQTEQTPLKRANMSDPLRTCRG
Assay: Agonist activity at rat GPR119 in GLUTag cells assessed as induction of GLP-1 secretion after 2 hrs by ELISA
Assay type: functional, cell-based
Measure: EC50 (nM)
Answers are plain numbers, in nM.

## Task Dear colleague, please send me the reported EC50 for `CC(C)(F)c1noc(N2CCC(N(c3cc(OC4CCN(S(C)(=O)=O)CC4)ncn3)C(F)(F)F)CC2)n1` when you can.
## Result 3.8

---

Give EC50 for every item shown.
Target: UniProtKB Q8TDV5
Sequence (Q8TDV5 whole entry): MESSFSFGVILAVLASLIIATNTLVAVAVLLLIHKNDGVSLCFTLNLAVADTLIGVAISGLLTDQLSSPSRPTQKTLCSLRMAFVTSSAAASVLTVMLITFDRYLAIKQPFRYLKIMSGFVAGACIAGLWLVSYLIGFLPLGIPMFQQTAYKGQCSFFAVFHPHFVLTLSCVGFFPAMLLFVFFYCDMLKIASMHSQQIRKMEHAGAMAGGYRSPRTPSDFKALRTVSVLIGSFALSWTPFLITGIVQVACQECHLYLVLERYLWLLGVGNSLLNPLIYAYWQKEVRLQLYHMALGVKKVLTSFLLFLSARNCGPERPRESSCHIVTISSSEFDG
Experiment: Agonist activity at human GPR119 expressed in CHO cells co-expressing cyclic AMP response element-luciferase reporter gene incubated for 2 hrs by steady-glo luciferase assay
Give bare numbers, in µM.

// known answers, use as guide
- Structure Smiles: "CC(C)(C)OC(=O)N1CCC(N(c2cc(O[C@H]3CC[C@H](S(C)(=O)=O)CC3)ncn2)C(F)(F)F)CC1"
  EC50 / µM: 0.27
- Structure Smiles: "CC(C)(C)OC(=O)N1CCC(N(c2cc(OC3CN(S(C)(=O)=O)C3)ncn2)C(F)(F)F)CC1"
  EC50 / µM: 7.1
- Structure Smiles: "CC(C)(C)OC(=O)N1CCC(Nc2cc(N3CCc4cc(S(C)(=O)=O)ccc43)ncn2)CC1"
  EC50 / µM: 0.3
- Structure Smiles: "CC(C)(C)OC(=O)N1CCC(N(c2cc(OC3CCN(S(C)(=O)=O)CC3)ncn2)C(F)(F)F)CC1"
  EC50 / µM: 0.0036
- Structure Smiles: "COCCN(c1cc(N2CCc3cc(S(C)(=O)=O)ccc32)ncn1)C1CCN(C(=O)OC(C)(C)C)CC1"
  EC50 / µM: 0.029

Give me EC50 for each of these compounds, listed below.
1. CC(C)(C)OC(=O)N1CCC(N(c2cc(OCC3CN(S(C)(=O)=O)C3)ncn2)C(F)(F)F)CC1
2. CN(c1cc(N2CCc3cc(S(C)(=O)=O)ccc32)ncn1)C1CCN(C(=O)OC(C)(C)C)CC1
3. CCN(c1cc(N2CCc3cc(S(C)(=O)=O)ccc32)ncn1)C1CCN(C(=O)OC(C)(C)C)CC1

## Result
[0.96, 0.021, 0.014]
